Target: recombinant human KRAS^G12D protein (Homo sapiens, UniProt P01116, G12D)
Sequence (P01116 1-188 isoform P01116-2 G12D): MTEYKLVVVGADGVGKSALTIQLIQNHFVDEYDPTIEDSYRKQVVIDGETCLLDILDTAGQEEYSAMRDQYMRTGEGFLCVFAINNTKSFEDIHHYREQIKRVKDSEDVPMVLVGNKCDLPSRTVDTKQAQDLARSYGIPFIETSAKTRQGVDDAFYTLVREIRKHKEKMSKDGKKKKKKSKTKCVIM
Assay: Temperature-dependent Fluorescence (TdF) KRAS G12D protein binding assay
Conditions: 6 μM KRAS^G12D protein, 10 μM compound, Sypro Orange; Kd calculated from the fluorescent shift
Entries and their measured Kd follow.

CN1CC(COc2nc(N3CC4CCC(C3)N4)c3cc(Cl)c(-c4cc(O)cc5ccccc45)c(F)c3n2)CC(F)(F)C1 (stereo not shown) [Compound 50]    500 to 5000 nM
Cc1cccc2[nH]nc(-c3c(Cl)cc4c(N5CC6CCC(C5)N6)nc(OC[C@@H]5CCCN5C)nc4c3F)c12 [Compound 75]    > 5000 nM
CN1CCC[C@H]1COc1nc(N2C[C@H]3NCC[C@H]32)c2cc(Cl)c(-c3cc(O)cc4cccc(Cl)c34)c(F)c2n1 [Compound 25]    > 5000 nM
CN1CC(F)(F)CC1COc1nc(N2CC3CCC(C2)N3)c2cc(Cl)c(-c3cc(O)cc4cccc(Cl)c34)c(F)c2n1 (stereo not shown) [Compound 35]    500 to 5000 nM
Oc1cc(-c2c(Cl)cc3c(N4CC5CCC(C4)N5)nc(OCC45CCCN4CCC5)nc3c2F)c2c(Cl)cccc2c1 [Compound 61]    < 500 nM
CN1CCC[C@H]1COc1nc(N2CC3CCC(C2)N3)c2cc(Cl)c(-c3c(O)cccc3F)c(F)c2n1 [Compound 4]    500 to 5000 nM

Shifting focus to the compound that follows.
QUERY: Identify measured Kd corresponding to Oc1cc(-c2c(Cl)cc3c(N4CC5CCC(C4)N5)nc(OC[C@@]45CCCN4C[C@H](F)C5)nc3c2F)c2c(Cl)cccc2c1 (single isomer, unassigned) [Compound 103]
RESULT: < 500 nM
